# maps each entry to its IC50
# Assay System: cPLA2 crudely purified from the cytoplasm fraction of U937 (Homo sapiens)
# Construct: cPLA2 crudely purified from the cytoplasm fraction of U937; endogenous in cells; host or cells: U937 cells (cytoplasm fraction, crude purification)
# Sequence (P47712 whole entry): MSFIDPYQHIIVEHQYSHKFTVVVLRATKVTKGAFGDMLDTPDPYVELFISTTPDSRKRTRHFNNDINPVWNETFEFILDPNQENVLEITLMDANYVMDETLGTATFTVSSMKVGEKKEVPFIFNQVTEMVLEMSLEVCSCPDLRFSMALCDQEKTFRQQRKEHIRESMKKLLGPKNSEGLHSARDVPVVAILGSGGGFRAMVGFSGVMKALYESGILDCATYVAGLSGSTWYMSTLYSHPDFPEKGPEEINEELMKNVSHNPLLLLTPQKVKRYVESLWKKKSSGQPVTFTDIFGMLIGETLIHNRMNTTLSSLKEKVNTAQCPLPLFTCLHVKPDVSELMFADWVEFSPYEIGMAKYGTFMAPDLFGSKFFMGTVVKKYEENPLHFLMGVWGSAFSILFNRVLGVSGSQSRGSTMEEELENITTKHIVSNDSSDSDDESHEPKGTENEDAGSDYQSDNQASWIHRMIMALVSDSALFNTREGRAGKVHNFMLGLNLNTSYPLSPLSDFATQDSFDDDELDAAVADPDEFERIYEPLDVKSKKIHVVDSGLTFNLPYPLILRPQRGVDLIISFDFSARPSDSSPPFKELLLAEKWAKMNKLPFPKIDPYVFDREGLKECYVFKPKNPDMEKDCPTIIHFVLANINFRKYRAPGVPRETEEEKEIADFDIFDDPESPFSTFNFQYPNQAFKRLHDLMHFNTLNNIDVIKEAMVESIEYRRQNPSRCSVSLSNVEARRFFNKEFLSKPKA
# Experiment Description: Measurement of cPLA2 inhibitory activity (release of [14C]-arachidonic acid from phosphatidyl choline liposome)
# Format: biochemical
# Experimental Context: cPLA2 from U937 cytoplasm fraction, [14C]arachidonyl-phosphatidyl choline liposome, 37° C., 60 minutes; read-out: cPLA2 inhibitory activity, 50% inhibiting concentration IC50
Structures can show the parent of a compound that is named as a salt.
Readout Kind: IC50 (µM)

1) O=C(O)CCc1ccc2c(c1)c(CCc1ccccc1)cn2-c1ccc(OCc2ccccc2)nc1 | 0.986
2) O=C(O)CCc1ccc2c(c1)c(CCc1ccccn1)cn2-c1ccc(COC(F)F)cc1 [Example 302, hydrochloride] | 0.764
3) O=C(O)CCc1ccc2c(c1)c(CCc1ccccc1)cn2-c1cccc(OC(F)F)c1 | 0.278
4) CN(C)C(=O)c1ccc(-n2cc(CCc3ccccc3)c3cc(CCC(=O)O)ccc32)cc1 | 0.354
